tested on: PCSK9 gene; assay: PCSK9 gRNA/SpCas9 editing in primary cynomolgus hepatocytes (Tables 2, 22); format: cell-based, cynomolgus monkey; settings: 2500 ng/RNA/mL; SpCas9 mRNA MS002 1:1 by weight
In the oligonucleotide strings, read from the 5' end, every base follows the letter of its sugar. An asterisk marks phosphorothioate; unmarked linkages are phosphodiester. Other units and linkages are bracketed, terminal groups are in braces. A string of capitals states the bases alone. m = 2'-O-methyl; r = 2'-OH (RNA)

Molecule	Output unit	Cyno Primary Hepatocyte Editing % 2500
GA247: PCSK9 gRNA; protospacer CCTCGCCAGGCGCTGGCAGG (SEQ ID NO: 240) (nucleic acid, sugars from the 5' end m3 r94 m3, linkages s3 o93 s3 (s phosphorothioate, o phosphodiester), T or U not given here) guide: CCUCGCCAGGCGCUGGCAGGGUUUUAGAGCUAGAAAUAGCAAGUUAAAAUAAGGCUAGUCCGUUAUCAACUUGAAAAAGUGGCACCGAGUCGGUGCUUUU	%	11.48
GA180: PCSK9 gRNA; protospacer GCGCACTGCCCGCCGCCTGC (SEQ ID NO: 174) (nucleic acid) guide: mG*mC*mG*rCrArCrUrGrCrCrCrGrCrCrGrCrCrUrGrCrGrUrUrUrUrArGrArGrCrUrArGrArArArUrArGrCrArArGrUrUrArArArArUrArArGrGrCrUrArGrUrCrCrGrUrUrArUrCrArArCrUrUrGrArArArArArGrUrGrGrCrArCrCrGrArGrUrCrGrGrUrGrCrU*mU*mU*mU	%	14.12
GA227: PCSK9 gRNA; protospacer GTCCCGGAAGTTGCCGGCAG (SEQ ID NO: 221) (nucleic acid, sugars from the 5' end m3 r94 m3, linkages s3 o93 s3 (s phosphorothioate, o phosphodiester), T or U not given here) guide: GUCCCGGAAGUUGCCGGCAGGUUUUAGAGCUAGAAAUAGCAAGUUAAAAUAAGGCUAGUCCGUUAUCAACUUGAAAAAGUGGCACCGAGUCGGUGCUUUU	%	32.41

Provenance of the data: patent US20250152746A1
